Biological target: cyclooxygenase-2 (Mus musculus, UniProt Q05769)
Construct: endogenous in cells; host or cells: Raw 264.7 (Korean cell line bank), aspirin-pretreated, induced with interferon gamma and LPS
Sequence (Q05769 18-604): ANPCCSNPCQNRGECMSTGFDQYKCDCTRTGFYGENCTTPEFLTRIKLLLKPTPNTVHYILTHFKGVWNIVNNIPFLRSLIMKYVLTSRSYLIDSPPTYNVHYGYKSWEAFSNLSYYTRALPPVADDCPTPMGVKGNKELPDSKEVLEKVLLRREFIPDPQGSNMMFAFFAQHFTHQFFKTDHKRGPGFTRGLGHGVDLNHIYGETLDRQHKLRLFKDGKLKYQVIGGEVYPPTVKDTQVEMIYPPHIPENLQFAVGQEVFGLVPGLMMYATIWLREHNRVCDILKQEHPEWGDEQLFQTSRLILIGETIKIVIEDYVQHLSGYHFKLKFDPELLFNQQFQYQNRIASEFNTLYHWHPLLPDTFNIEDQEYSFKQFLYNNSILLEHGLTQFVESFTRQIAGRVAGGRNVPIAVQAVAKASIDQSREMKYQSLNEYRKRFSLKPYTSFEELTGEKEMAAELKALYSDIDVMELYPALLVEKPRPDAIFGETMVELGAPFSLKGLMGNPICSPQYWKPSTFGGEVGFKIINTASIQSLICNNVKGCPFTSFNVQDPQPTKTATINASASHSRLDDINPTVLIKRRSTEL
Assay: Inhibition of cyclooxygenase-2 in Raw 264.7 cells treated with interferon γ and LPS (PGE2 EIA)
Format: cell-based
Conditions: 30 nM; Raw 264.7 cells
Experimental: In order to investigate pharmacologically the selective inhibition activity against cyclooxygenase-2 enzyme, the inhibitive effects against cyclooxygenase-1 and cyclooxygenase-2 were measured by two methods as follows. And then, each samples were replaced with new media and cultured for 30 minutes. […] Then, the media was transferred to other tubes and the PGE 2 was quantitated by using EIA kit from Cayman Chemicals.
RECORDED METRIC: Inhibitory effects of cyclooxygenase (COX): COX-2 (% inhibition)
Give your result in % inhibition as a bare value.

State measured Inhibitory effects of cyclooxygenase (COX): COX-2 of the compound COc1ccc(-c2nc(C)nn2-c2ccc(S(N)(=O)=O)cc2)cc1 [Example 6] with cyclooxygenase-2 (Mus musculus, UniProt Q05769).
68.8

Fill in Inhibitory effects of cyclooxygenase (COX): COX-2 for Cc1nc(-c2ccc(Br)cc2)n(-c2ccc(S(N)(=O)=O)cc2)n1 [Example 4] tested with cyclooxygenase-2 (Mus musculus, UniProt Q05769).
64.2

Enter Inhibitory effects of cyclooxygenase (COX): COX-2 (test system cyclooxygenase-2 (Mus musculus, UniProt Q05769)) for Cc1nc(-c2ccc(F)cc2)n(-c2ccc(S(C)(=O)=O)cc2)n1 [Example 26]
20.1

Fill in Inhibitory effects of cyclooxygenase (COX): COX-2 for Cc1nc(-c2cccc(Br)c2)n(-c2ccc(S(N)(=O)=O)cc2)n1 [Example 9] tested with cyclooxygenase-2 (Mus musculus, UniProt Q05769).
66.5

Give cyclooxygenase-2 (Mus musculus, UniProt Q05769) Inhibitory effects of cyclooxygenase (COX): COX-2 for the following compound: Cc1nc(-c2ccc(Br)cc2)n(-c2ccc(S(C)(=O)=O)cc2)n1 [Example 30]
27.3

Name the value of Inhibitory effects of cyclooxygenase (COX): COX-2 reported for Cc1nc(-c2ccc(Cl)cc2)n(-c2ccc(S(C)(=O)=O)cc2)n1 [Example 28] when tested on cyclooxygenase-2 (Mus musculus, UniProt Q05769).
33.9

Return reported Inhibitory effects of cyclooxygenase (COX): COX-2 for target or system cyclooxygenase-2 (Mus musculus, UniProt Q05769), item Cc1ccc(-c2nc(C)nn2-c2ccc(S(N)(=O)=O)cn2)cc1 [Example 18] .
26.4

Fill in: Inhibitory effects of cyclooxygenase (COX): COX-2 on cyclooxygenase-2 (Mus musculus, UniProt Q05769), entry COc1ccc(-c2nc(C)nn2-c2ccc(S(N)(=O)=O)cc2)cc1OC [Example 12]
30.3

Specify the recorded Inhibitory effects of cyclooxygenase (COX): COX-2 for Cc1nc(-c2ccc(Cl)cc2)n(-c2ccc(S(N)(=O)=O)cn2)n1 [Example 16] , system: cyclooxygenase-2 (Mus musculus, UniProt Q05769).
32.4

# lookup: cyclooxygenase-2 (Mus musculus, UniProt Q05769) Inhibitory effects of cyclooxygenase (COX): COX-2, key = Cc1nc(-c2cccc(Cl)c2)n(-c2ccc(S(N)(=O)=O)cn2)n1 [Example 21]
43.9

Param request: Inhibitory effects of cyclooxygenase (COX): COX-2 | system cyclooxygenase-2 (Mus musculus, UniProt Q05769) | item Cc1nc(-c2ccccc2)n(-c2ccc(S(N)(=O)=O)cn2)n1 [Example 14]
72.1

Recall the reported Inhibitory effects of cyclooxygenase (COX): COX-2 of COc1cc(OC)cc(-c2nc(C)nn2-c2ccc(S(N)(=O)=O)cc2)c1 [Example 13] on cyclooxygenase-2 (Mus musculus, UniProt Q05769) and write it down.
37.9

Give the observed Inhibitory effects of cyclooxygenase (COX): COX-2 of COc1ccc(-c2nc(C)nn2-c2ccc(S(N)(=O)=O)cn2)cc1 [Example 19] for cyclooxygenase-2 (Mus musculus, UniProt Q05769).
34.8

Provide cyclooxygenase-2 (Mus musculus, UniProt Q05769) Inhibitory effects of cyclooxygenase (COX): COX-2 reading for Cc1nc(-c2ccc(Br)cc2)n(-c2ccc(S(C)(=O)=O)cn2)n1 [Example 31] .
69.5

Give Inhibitory effects of cyclooxygenase (COX): COX-2 for this entry on cyclooxygenase-2 (Mus musculus, UniProt Q05769): Cc1nc(-c2ccccc2)n(-c2ccc(S(C)(=O)=O)cc2)n1 [Example 24]
29.7

Provide measured Inhibitory effects of cyclooxygenase (COX): COX-2 on cyclooxygenase-2 (Mus musculus, UniProt Q05769) for Cc1nc(-c2ccc(F)cc2)n(-c2ccc(S(N)(=O)=O)cc2)n1 [Example 2] please.
28.8

State Inhibitory effects of cyclooxygenase (COX): COX-2 (cyclooxygenase-2 (Mus musculus, UniProt Q05769)) of Cc1nc(-c2cccc(F)c2)n(-c2ccc(S(N)(=O)=O)cc2)n1 [Example 7] .
54.3

Please tell me the measured Inhibitory effects of cyclooxygenase (COX): COX-2 for Cc1nc(-c2ccccc2)n(-c2ccc(S(N)(=O)=O)cc2)n1 [Example 1] ; system: cyclooxygenase-2 (Mus musculus, UniProt Q05769).
48.5

Write Inhibitory effects of cyclooxygenase (COX): COX-2 of COc1ccccc1-c1nc(C)nn1-c1ccc(S(N)(=O)=O)cc1 [Example 11] ; system used: cyclooxygenase-2 (Mus musculus, UniProt Q05769)
25.0

Supply Inhibitory effects of cyclooxygenase (COX): COX-2 measured with cyclooxygenase-2 (Mus musculus, UniProt Q05769) for COc1cc(OC)cc(-c2nc(C)nn2-c2ccc(S(N)(=O)=O)cn2)c1 [Example 22] .
27.3

Return reported Inhibitory effects of cyclooxygenase (COX): COX-2 for target or system cyclooxygenase-2 (Mus musculus, UniProt Q05769), item Cc1nc(-c2cccc(Cl)c2)n(-c2ccc(S(N)(=O)=O)cc2)n1 [Example 8] .
31.3

Give Inhibitory effects of cyclooxygenase (COX): COX-2 for this entry on cyclooxygenase-2 (Mus musculus, UniProt Q05769): Cc1nc(-c2ccc(F)cc2)n(-c2ccc(S(N)(=O)=O)cn2)n1 [Example 15]
27.1

Specify the recorded Inhibitory effects of cyclooxygenase (COX): COX-2 for Cc1ccc(-c2nc(C)nn2-c2ccc(S(N)(=O)=O)cc2)cc1 [Example 5] , system: cyclooxygenase-2 (Mus musculus, UniProt Q05769).
45.3

Please respond with reported Inhibitory effects of cyclooxygenase (COX): COX-2 (system cyclooxygenase-2 (Mus musculus, UniProt Q05769)) for Cc1nc(-c2cccc(F)c2)n(-c2ccc(S(N)(=O)=O)cn2)n1 [Example 20] .
30.2

Please report Inhibitory effects of cyclooxygenase (COX): COX-2 with cyclooxygenase-2 (Mus musculus, UniProt Q05769) for item Cc1nc(-c2ccc(Cl)cc2)n(-c2ccc(S(N)(=O)=O)cc2)n1 [Example 3] .
40.0

Find Inhibitory effects of cyclooxygenase (COX): COX-2 for Cc1nc(-c2ccc(Br)cc2)n(-c2ccc(S(N)(=O)=O)cn2)n1 [Example 17] on cyclooxygenase-2 (Mus musculus, UniProt Q05769) and write it down.
47.8

Fetch value of Inhibitory effects of cyclooxygenase (COX): COX-2 on cyclooxygenase-2 (Mus musculus, UniProt Q05769) for COc1cccc(-c2nc(C)nn2-c2ccc(S(N)(=O)=O)cc2)c1 [Example 10] .
42.1
